# measured-target: T1, Bcat-Halo (UniProt P35222 1-781)
# T1 sequence (looked up): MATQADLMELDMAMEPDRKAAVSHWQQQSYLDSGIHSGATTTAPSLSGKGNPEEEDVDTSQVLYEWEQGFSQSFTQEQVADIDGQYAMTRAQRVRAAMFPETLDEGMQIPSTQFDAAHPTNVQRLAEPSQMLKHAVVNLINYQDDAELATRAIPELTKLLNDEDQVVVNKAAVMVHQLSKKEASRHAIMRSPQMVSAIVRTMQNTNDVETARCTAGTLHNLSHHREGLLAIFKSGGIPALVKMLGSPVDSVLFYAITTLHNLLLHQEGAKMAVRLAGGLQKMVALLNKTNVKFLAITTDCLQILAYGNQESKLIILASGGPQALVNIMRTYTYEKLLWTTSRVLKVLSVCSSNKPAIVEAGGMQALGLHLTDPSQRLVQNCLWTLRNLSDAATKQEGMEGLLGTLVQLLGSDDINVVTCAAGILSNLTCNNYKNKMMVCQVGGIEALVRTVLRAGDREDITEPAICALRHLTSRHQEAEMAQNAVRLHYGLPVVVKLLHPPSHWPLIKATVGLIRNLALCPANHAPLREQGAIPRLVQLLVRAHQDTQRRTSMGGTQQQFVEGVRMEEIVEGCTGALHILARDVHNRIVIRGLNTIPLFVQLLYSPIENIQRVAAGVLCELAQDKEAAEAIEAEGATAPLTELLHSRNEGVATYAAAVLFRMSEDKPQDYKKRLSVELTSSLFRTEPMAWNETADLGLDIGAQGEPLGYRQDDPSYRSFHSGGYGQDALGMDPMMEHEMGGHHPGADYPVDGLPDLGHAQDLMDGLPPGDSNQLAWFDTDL
# assay-name: cell-based or functional assay
Starred links: 1 amine or outer side, 2 acyl side, 3 side chain; linkers in the order of their positions; H or OH if unused. Positions of bridges follow the written chain, without caps; N, C: chain ends. Non-standard residues stand in square brackets, D forms with d. Primed or numbered codes have the meaning given here. PyrS2″ = (S)-3-amino-1-((pent-4-en-1-yloxy)carbonyl)pyrrolidine-3-carboxylic acid (stapling residue), C=CCCCOC(=O)N1CC[C@@](N[*:1])(C(=O)[*:2])C1; B5(4) = 2,2-bis(4-pentenyl)glycine = 2-amino-2-(pent-4-en-1-yl)hept-6-enoic acid (stitching residue), C=CCCCC(CCCC=C)(N[*:1])C(=O)[*:2]; PyrS2 = (S)-3-amino-1-((pent-4-en-1-yloxy)carbonyl)pyrrolidine-3-carboxylic acid, C=CCCCOC(=O)N1CC[C@@](N[*:1])(C(=O)[*:2])C1; (Morph)GlnR = (S)-2-amino-5-morpholino-5-oxopentanoic acid, O=C(CC[C@H](N[*:1])C(=O)[*:2])N1CCOCC1; B5(28) = 2,2-bis(4-pentenyl)glycine, C=CCCCC(CCCC=C)(N[*:1])C(=O)[*:2]; Phe(3-COOH) = N[C@@H](Cc1cccc(C(=O)O)c1)C(=O)O; 2F3MeF = Cc1cccc(C[C@H](N[*:1])C(=O)[*:2])c1F; Bta = N[C@@H](Cc1csc2ccccc12)C(=O)O; αAllylPro = C=CC[C@@]1(C(=O)O)CCCN1; isoindolineGlnR = not defined here; tBuAla = CC(C)(C)C[C@H](N)C(=O)O; PyrS2(4) = not defined here
reported-property: NanoBRET Abs IC50 (nM)

binder: Ac-[αAllylPro]D[tBuAla][B5(4)]D[Phe(3-COOH)][(Morph)GlnR]AFL[PyrS2″][2F3MeF][Bta]A-NH2 (staple 1-4, 4-11) [I-2315]
measured-value: 1200
//
binder: Ac-[αAllylPro]D[tBuAla][B5(28)]D[Phe(3-COOH)][isoindolineGlnR]AFL[PyrS2][2F3MeF][Bta]A-NH2 (staple 1-4, 4-11; reading uncertain) [I-2320]
measured-value: 2700
//
binder: Ac-[αAllylPro]D[tBuAla][B5(4)]D[Phe(3-COOH)][(TfePpz)GlnR]AFL[PyrS2(4)][2F3MeF][Bta]A-NH2 (staple 1-4, 4-11; reading uncertain; also: printed as Ac-PL3-Asp-Npg-B5-Asp-3COOHF-[TfePpz]GlnR-Ala-Phe-Leu-PyrS2-2F3MeF-BztA-Ala-NH2) [I-2316]
measured-value: 1600
